System: UACC-62 melanoma
Test: NCI tumour cell line growth inhibition, 48 h; in the data active = GI50 below about 0.43 µM; inactive = the rest
Give your call using only these classes: active, inactive

A selection of reference data follows.
COc1ccc(-n2cc(-c3cc(OC)c(OC)c(OC)c3)[nH]c2=O)cc1Cl :: inactive
NCCCn1c2c(c3ccc([N+](=O)[O-])cc3c1=O)C(=O)c1cc(Br)ccc1-2 :: active
O=C(/C=C\n1cnc(-c2cc(C(F)(F)F)cc(C(F)(F)F)c2)n1)NNc1cnccn1 :: active

Proceed to the following item.
# input # lookup: test call for CC[C@H](C)[C@H]1O[C@]2(C=C[C@@H]1C)C[C@@H]1C[C@@H](C/C=C(\C)[C@@H](O[C@H]3C[C@H](OC)[C@@H](O[C@H]4C[C@H](OC)[C@@H](NC)[C@H](C)O4)[C@H](C)O3)[C@@H](C)/C=C/C=C3\CO[C@@H]4[C@H](O)C(C)=C[C@@H](C(=O)O1)[C@]34O)O2
# output inactive

###

Tested on: RXF 393 renal
Assay: NCI tumour cell line growth inhibition, 48 h; in the data active means GI50 below about 0.43 µM; inactive means the rest
Give your call using only these classes: 1 (yes) for active, 0 (no) for inactive

A selection of reference data follows.
O=C(/C=C\n1cnc(-c2cc(C(F)(F)F)cc(C(F)(F)F)c2)n1)NNc1cnccn1 :: 1 (yes)
Cc1ccc(NC(=O)NCCCOc2ccc(N3C(N)=NC(N)=NC3(C)C)cc2Cl)cc1S(=O)(=O)F :: 0 (no)
CON(C)C(=O)N1N=C(c2cc(F)ccc2F)SC1(CCCN)c1ccccc1 (centres undefined) :: 1 (yes)
O=C(/C(=C/c1cccc([N+](=O)[O-])c1)c1ccccc1)c1ccccc1 :: 0 (no)
COc1cc2c3c(n(CCNCCCNCCn4c5c(c6cc(OC)c(OC)cc6c4=O)C(=O)c4ccccc4-5)c(=O)c2cc1OC)-c1ccccc1C3=O :: 0 (no)
O=S1(=O)N(CCNc2nccc(-c3c(-c4cccc(O)c4)nc4sccn34)n2)CCN1Cc1ccccc1 :: 0 (no)

# input # lookup: test call for Cc1ccc2c3c(c(=O)[nH]c2c1)C1(C(C#N)=C(N)O3)c2cc(Br)ccc2-c2ccc(Br)cc21
# output 0 (no)

# input # lookup: test call for CCc1oc2ccccc2c1C(=O)c1cc(I)c(O)c(I)c1
# output 0 (no)

# input # lookup: test call for O=C(O)[C@@H]1CCCCN1Cc1cc2cc3c(cc2c2cc(OCc4ccccc4)ccc12)OCO3
# output 0 (no)

###

Tested on: T-47D breast
Test: NCI tumour cell line growth inhibition, 48 h
This section presents compounds with their documented TGI values.

Consider the worked cases shown below.
Cc1ccc(/C=C2\CCC/C(=C\c3ccc(O)c(CN4CCCCC4)c3)C2=O)cc1 :: 60.2 µM
Cn1c(=O)c2[nH]c(CCCCC(=O)O)nc2n(C)c1=O :: > 100 µM

# input For the compound c1ccc(CSP234N5CCN2CCN3CCN4CC5)c(CSP234N5CCN2CCN3CCN4CC5)c1 , what TGI is on record?
# output > 100 µM

# input For the compound O=C1/C(=C/c2ccc(O)cc2)CSc2ccc(Cl)cc21 , what TGI is on record?
# output 22.7 µM

# input For the compound COC(=O)C1=C(C(=O)OC)c2cc(OC)ccc2C(C(=S)N(C)C)S1 (stereo not drawn) , what TGI is on record?
# output > 100 µM

Origin of values: PubChem BioAssay (NCI)
